Experiment: clinical
Settings: human, in vivo, 500 mg
REPORTED METRIC: Cmax (ng/mL)
// units = ng/mL; emit number, no label

// Cmax lookup, key: CC[C@H]1OC(=O)[C@H](C)[C@@H](O[C@H]2C[C@@](C)(OC)[C@@H](O)[C@H](C)O2)[C@H](C)[C@@H](O[C@@H]2O[C@H](C)C[C@H](N(C)C)[C@H]2O)[C@](C)(O)C[C@@H](C)CN(C)[C@H](C)[C@@H](O)[C@]1(C)O [Azithromycin Dihydrate]
94

src = patent US7572773B2
